// provenance: paper PMC7826789

Test system: LIMK2;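 also: KINOMEscan scanMAX binding as percent activity remaining versus control; lower means stronger binding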
details: Compound Concentration (nM):1000
testReadout: Percent Control (%)

{"molecule": "COc1cccc(-c2c[nH]c3c(N/N=C/c4ccncc4)ncnc23)c1 [GW814408X]", "testReadout": "Percent Control", "measurementUnits": "%", "endpointValue": 84}
{"molecule": "Cl.O=C(O[C@H]1CN[C@H](C#Cc2cc3ncnc(Nc4ccc5c(cnn5Cc5ccccc5)c4)c3s2)C1)N1CCOCC1 [GSK200398A]", "testReadout": "Percent Control", "measurementUnits": "%", "endpointValue": 100}
{"molecule": "COc1cccc(-n2ncc3c(N/N=C/c4ccncc4)ncnc32)c1 [GW784752X]", "testReadout": "Percent Control", "measurementUnits": "%", "endpointValue": 100}
